Listing: pEC50 of selected binders
MEASURED_TARGET: T1, human LAG-3 expressed on cells (human, UniProt P18627 23-525)
T1 construct: whole, on cells; also called HEK 293F cells expressing human LAG-3; T hybridoma-huLAG-3 cells
T1 sequence (looked up): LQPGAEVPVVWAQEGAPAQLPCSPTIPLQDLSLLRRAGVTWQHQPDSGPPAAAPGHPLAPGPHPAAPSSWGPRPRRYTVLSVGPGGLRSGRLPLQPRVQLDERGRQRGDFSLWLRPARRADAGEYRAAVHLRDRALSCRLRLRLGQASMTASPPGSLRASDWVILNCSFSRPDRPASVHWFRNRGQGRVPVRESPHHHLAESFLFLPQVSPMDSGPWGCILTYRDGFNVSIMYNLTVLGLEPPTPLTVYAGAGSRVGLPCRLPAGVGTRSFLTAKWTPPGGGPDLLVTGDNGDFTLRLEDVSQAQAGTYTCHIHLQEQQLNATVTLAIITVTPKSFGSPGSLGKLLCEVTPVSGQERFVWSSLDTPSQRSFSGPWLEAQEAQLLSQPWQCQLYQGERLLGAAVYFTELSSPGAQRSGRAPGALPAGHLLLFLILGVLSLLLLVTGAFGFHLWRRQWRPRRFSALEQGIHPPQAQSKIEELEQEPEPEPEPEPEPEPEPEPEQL
ASSAY_OVERVIEW: FACS, HEK 293F huLAG-3 cells
To interpret pEC50, take it as minus log10 of a concentration measured in moles per litre.

Using the record for mAb747 (antibody, V domains shown, murine hybridoma anti-LAG-3 mAb; also called 3502-mAb747) VH: EVQLQQSGAELVRPGASVKLSCTASDFNIKDDYMHWVKQRPEQGLDWIGWIVPENGNTEYASKFQGKATITADTSSNTAYLQLSSLTSEDTAVYYCTVYGDYWGQGTTLTVSS VL: DIQMTQSPSSLSASLGERVSLNCRASQEISGYLSWLQQKPDGTIKRLIYAASTLDSGVPKRFSGSRSGSDYSLTISSLESEDFAAYYCLQYASYPLTFGAGTKLELK , report its pEC50. 8.96

# lookup: pEC50 of mAb746 (antibody, V domains shown, murine hybridoma anti-LAG-3 mAb; also called rnAb746; 3502-mAb746) VH: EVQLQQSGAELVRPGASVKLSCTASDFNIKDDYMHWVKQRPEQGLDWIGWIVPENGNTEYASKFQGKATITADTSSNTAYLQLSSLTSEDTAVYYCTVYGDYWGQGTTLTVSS VL: DIQMTQSPSSLSASLGERVSLNCRASQEISGYLSWLQQKSDGTIKRLIYAASTLDSGVPKRFSGSRSGSDYSLTISSLESEDFADYYCLQYASYPLTFGAGTKLELK 7.89

Which measured pEC50 value corresponds to mAb749 (antibody, V domains shown, murine hybridoma anti-LAG-3 mAb) VH: EVQLQQSGAELVRPGASVKVSCTASDFNIKDDYVHWVKQRPEQGLEWIGWIDPENGDTEYASKFQGKATITADTSSNTAYLQLSSLTSEDTAVYFCSTWDAEENYWGQGTTLSVSS VL: DIVLTQAAPSVPVTPGESVSISCRSSKSLLHSNGNTYLYWFLQRPGQSPQVLIYRMSNLASGVPVRFSGSGSGTAFTLRISRVEAEDVGVYYCMQHLEYPFTFGSGTKLEIK ? 8.48

I would be grateful if you could share the reported pEC50 for mAb742 (antibody, V domains shown, murine hybridoma anti-LAG-3 mAb) VH: QGQLQQSGAELVRPGASVTLSCKASGYTFNDYEMHWVKQTPVHGLEWIGAIDPETGGTAYNQKFKGKAILTADKSSSTAYMELRSLTSEDSAVYYCIRWGSTVFPYWGQGTLVTVS VL: DGVLTQTPLSLPVNIGDQASISCKSTKSLLNSDGFTYLDWYLQKPGQSPQLLIYLVSNRFSGVPDRFSGSGSGTDFTLKISRVEAEDLGVYYCFQSNYLPWTFGGGTKLEIK . 8.55

State the recorded pEC50 for this entry: mAb744 (antibody, V domains shown, murine hybridoma anti-LAG-3 mAb; also called rnAb744) VH: QVQLQQSGAELVRPGTSVTLSCKASGYTFTDYEMHWMKQTPVHGLEWIGAIDPATGGTAYNQKFKGKAILTADKSSSTAYMDFRSLTSEDSAVYYCIRWGTTVFPYWGQGTLVTVS VL: DVVLTQTPLSLPVNIGDQASISCKSTKSLLNSDGFTYLDWYLQKPGQSPQLLIYLVSNRFSGVPDRFSGSGSGTDFTLKISRVEAEDLGVYYCFQSNYLPWTFGGGTKLEIK 8.02
